Protocol details: Half life in BALB/c mouse plasma at 30 mg/kg, ig
Type: ADME, organism-based
Test conditions: po

>  <Molecule>
CCCCCCCC1OC(=O)c2cc(N3N=C(c4cc(Cl)ccc4O)CC3=O)ccc21 (stereo unspecified)

>  <half-life (h)>
1.15

$$$$

* * *

Protocol details: Half life in BALB/c mouse brain at 30 mg/kg, ig
Type: ADME, organism-based
Test conditions: po

>  <Molecule>
CCCCCCCC1OC(=O)c2cc(N3N=C(c4cc(Cl)ccc4O)CC3=O)ccc21 (stereo unspecified)

>  <half-life>
2.07 h

$$$$

* * *

Measured on: MAO-A (Homo sapiens, UniProt P21397)
Sequence (P21397 whole entry): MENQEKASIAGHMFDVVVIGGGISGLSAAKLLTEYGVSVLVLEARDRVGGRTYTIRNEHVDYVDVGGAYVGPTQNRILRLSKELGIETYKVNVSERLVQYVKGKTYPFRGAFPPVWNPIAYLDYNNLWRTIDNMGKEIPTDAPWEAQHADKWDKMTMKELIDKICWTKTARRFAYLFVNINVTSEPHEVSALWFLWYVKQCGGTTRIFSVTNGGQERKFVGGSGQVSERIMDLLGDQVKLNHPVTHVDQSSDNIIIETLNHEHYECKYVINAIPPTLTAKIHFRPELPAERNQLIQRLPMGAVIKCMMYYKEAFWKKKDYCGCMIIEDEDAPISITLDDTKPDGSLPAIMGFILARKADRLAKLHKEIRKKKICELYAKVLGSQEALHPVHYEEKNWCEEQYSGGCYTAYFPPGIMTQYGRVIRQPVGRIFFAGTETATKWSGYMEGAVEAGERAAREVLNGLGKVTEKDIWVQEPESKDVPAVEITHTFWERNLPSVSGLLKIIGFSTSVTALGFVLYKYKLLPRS
Protocol details: Inhibition of human recombinant MAO-A at 10 uM
# cutoff 8% applies to inhibition at 10 µM; >= gives t, < gives f

>  <Compound>
CCCCC1OC(=O)c2cc(N3N=C(c4cc(F)ccc4O)CC3=O)ccc21 (stereo not given)

>  <Measured on>
MAO-A (Homo sapiens, UniProt P21397)

>  <Assigned category>
t

$$$$
>  <Compound>
CCCCC1OC(=O)c2cc(N3N=C(c4cc(N(C)C)ccc4O)CC3=O)ccc21 (stereo not given)

>  <Measured on>
MAO-A (Homo sapiens, UniProt P21397)

>  <Assigned category>
f

$$$$
>  <Compound>
CCCCC1OC(=O)c2cc(N3N=C(c4cc(OC)ccc4O)CC3=O)ccc21 (stereo not given)

>  <Measured on>
MAO-A (Homo sapiens, UniProt P21397)

>  <Assigned category>
f

$$$$
>  <Compound>
CCCCC1OC(=O)c2cc(N3N=C(c4ccc(Cl)cc4O)CC3=O)ccc21 (stereo not given)

>  <Measured on>
MAO-A (Homo sapiens, UniProt P21397)

>  <Assigned category>
f

$$$$

* * *

Measured Activity accompanies every entry in the list below.
Measured on: Amyloid-beta precursor protein (Homo sapiens) (UniProt P05067)
Sequence (P05067 whole entry): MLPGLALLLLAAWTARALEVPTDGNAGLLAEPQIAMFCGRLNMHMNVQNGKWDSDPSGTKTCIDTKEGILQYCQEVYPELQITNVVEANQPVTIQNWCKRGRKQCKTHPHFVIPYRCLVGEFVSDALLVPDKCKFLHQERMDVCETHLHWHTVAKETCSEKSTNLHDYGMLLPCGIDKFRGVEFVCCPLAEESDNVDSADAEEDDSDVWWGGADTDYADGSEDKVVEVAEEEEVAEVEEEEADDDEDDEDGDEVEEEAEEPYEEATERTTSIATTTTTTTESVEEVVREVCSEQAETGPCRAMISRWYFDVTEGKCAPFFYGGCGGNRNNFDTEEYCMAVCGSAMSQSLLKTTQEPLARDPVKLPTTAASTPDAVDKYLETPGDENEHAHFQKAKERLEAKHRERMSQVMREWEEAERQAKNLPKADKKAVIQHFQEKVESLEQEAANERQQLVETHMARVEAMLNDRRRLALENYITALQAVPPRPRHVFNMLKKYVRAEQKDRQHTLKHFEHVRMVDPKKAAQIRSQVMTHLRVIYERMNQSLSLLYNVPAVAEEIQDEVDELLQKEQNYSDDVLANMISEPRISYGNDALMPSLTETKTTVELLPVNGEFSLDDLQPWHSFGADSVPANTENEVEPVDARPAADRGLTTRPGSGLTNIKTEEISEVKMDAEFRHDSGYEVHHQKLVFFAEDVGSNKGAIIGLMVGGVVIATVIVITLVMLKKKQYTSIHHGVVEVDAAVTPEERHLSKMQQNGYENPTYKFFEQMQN
Protocol details: Disaggregation of Cu2+-induced amyloid beta (1 to 42) (unknown origin) preformed fibrils at 25 uM by ThT fluorescence assay
Observed property: Activity (%)

>  <Molecule>
CCCCC1OC(=O)c2cc(N3N=C(c4cc(Cl)cc(Cl)c4O)CC3=O)ccc21 (stereo not given)

>  <Observed property>
Activity

>  <Unit descriptor>
%

>  <Result>
77.7

$$$$
>  <Molecule>
CCCCC1OC(=O)c2cc(N3N=C(c4ccccc4O)CC3=O)ccc21 (stereo not given)

>  <Observed property>
Activity

>  <Unit descriptor>
%

>  <Result>
76.4

$$$$
>  <Molecule>
CCCCC1OC(=O)c2cc(N3N=C(c4cc(OC)ccc4O)CC3=O)ccc21 (stereo not given)

>  <Observed property>
Activity

>  <Unit descriptor>
%

>  <Result>
69.1

$$$$
>  <Molecule>
CCCCCCC1OC(=O)c2cc(N3N=C(c4cc(Cl)ccc4O)CC3=O)ccc21 (stereo not given)

>  <Observed property>
Activity

>  <Unit descriptor>
%

>  <Result>
73.8

$$$$
>  <Molecule>
CCCCC1OC(=O)c2cc(N3N=C(c4cc(F)ccc4O)CC3=O)ccc21 (stereo not given)

>  <Observed property>
Activity

>  <Unit descriptor>
%

>  <Result>
59.5

$$$$

* * *

Measured on: Amyloid-beta precursor protein (Homo sapiens) (UniProt P05067)
Protocol details: Disaggregation of Cu2+-induced amyloid beta (1 to 42) (unknown origin) preformed fibrils at 25 uM by ThT fluorescence assay

>  <Compound>
CCCCCCCC1OC(=O)c2cc(N3N=C(c4ccccc4O)CC3=O)ccc21 (stereo not given)

>  <Activity>
71.7%

$$$$
>  <Compound>
CCCCC1OC(=O)c2cc(N3N=C(c4ccc(Cl)cc4O)CC3=O)ccc21 (stereo not given)

>  <Activity>
65.6%

$$$$
>  <Compound>
CCCCC1OC(=O)c2cc(N3N=C(c4cc(Cl)ccc4O)CC3=O)ccc21 (stereo not given)

>  <Activity>
74.6%

$$$$
>  <Compound>
CCCCC1OC(=O)c2cc(N3N=C(c4cccc(F)c4O)CC3=O)ccc21 (stereo not given)

>  <Activity>
54.6%

$$$$
>  <Compound>
CCCCC1OC(=O)c2cc(N3N=C(c4cc([N+](=O)[O-])ccc4O)CC3=O)ccc21 (stereo not given)

>  <Activity>
61.8%

$$$$
>  <Compound>
CCCCC1OC(=O)c2cc(N3N=C(c4cc(Br)ccc4O)CC3=O)ccc21 (stereo not given)

>  <Activity>
55%

$$$$
>  <Compound>
CCCCC1OC(=O)c2cc(N3N=C(c4ccc(Br)cc4O)CC3=O)ccc21 (stereo not given)

>  <Activity>
66%

$$$$
>  <Compound>
O=C1OCc2ccc(N3N=C(c4cc(F)ccc4O)CC3=O)cc21

>  <Activity>
42.8%

$$$$
>  <Compound>
CCCCC1OC(=O)c2cc(N3N=C(c4cccc(Br)c4O)CC3=O)ccc21 (stereo not given)

>  <Activity>
62.8%

$$$$
>  <Compound>
CCCCCCC1OC(=O)c2cc(N3N=C(c4cc(F)ccc4O)CC3=O)ccc21 (stereo not given)

>  <Activity>
55%

$$$$
>  <Compound>
CCCCCCCC1OC(=O)c2cc(N3N=C(c4cc(Cl)ccc4O)CC3=O)ccc21 (stereo not given)

>  <Activity>
82.4%

$$$$
>  <Compound>
CCCCC1OC(=O)c2cc(N3N=C(c4cc(N(C)C)ccc4O)CC3=O)ccc21 (stereo not given)

>  <Activity>
55.7%

$$$$
>  <Compound>
CCCCCCCC1OC(=O)c2cc(N3N=C(c4cc(OC)ccc4O)CC3=O)ccc21 (stereo not given)

>  <Activity>
60.7%

$$$$
>  <Compound>
CCCCCCC1OC(=O)c2cc(N3N=C(c4ccccc4O)CC3=O)ccc21 (stereo not given)

>  <Activity>
66.7%

$$$$
>  <Compound>
CCCCC1OC(=O)c2cc(N3N=C(c4cc(Cl)cc(Br)c4O)CC3=O)ccc21 (stereo not given)

>  <Activity>
86.8%

$$$$

* * *

Measured Ratio IC50 accompanies every entry in the list below.
Protocol details: Selectivity index, ratio of IC50 for human recombinant MAO-A to IC50 for human recombinant MAO-B

>  <Compound>
CCCCC1OC(=O)c2cc(N3N=C(c4cc(C)ccc4O)CC3=O)ccc21 (stereo not drawn)

>  <Ratio IC50>
> 1.4

$$$$
>  <Compound>
CCCCC1OC(=O)c2cc(N3N=C(c4ccc(Br)cc4O)CC3=O)ccc21 (stereo not drawn)

>  <Ratio IC50>
> 0.8

$$$$
>  <Compound>
CCCCC1OC(=O)c2cc(N3N=C(c4cc(Cl)cc(Cl)c4O)CC3=O)ccc21 (stereo not drawn)

>  <Ratio IC50>
> 1.8

$$$$
>  <Compound>
CC1=NN(c2ccc3c(c2)C(=O)OC3)C(=O)C1

>  <Ratio IC50>
1.6

$$$$
>  <Compound>
O=C1OCc2ccc(N3N=C(c4cccc(F)c4O)CC3=O)cc21

>  <Ratio IC50>
> 11.1

$$$$
>  <Compound>
CCCCCCC1OC(=O)c2cc(N3N=C(c4cc(F)ccc4O)CC3=O)ccc21 (stereo not drawn)

>  <Ratio IC50>
> 1.6

$$$$
>  <Compound>
CCCCCCCC1OC(=O)c2cc(N3N=C(c4cc(Cl)ccc4O)CC3=O)ccc21 (stereo not drawn)

>  <Ratio IC50>
> 24.4

$$$$
>  <Compound>
CCCCC1OC(=O)c2cc(N3N=C(c4cc(F)ccc4O)CC3=O)ccc21 (stereo not drawn)

>  <Ratio IC50>
> 2.9

$$$$
>  <Compound>
CCCCC1OC(=O)c2cc(N3N=C(c4cc(Br)ccc4O)CC3=O)ccc21 (stereo not drawn)

>  <Ratio IC50>
> 1.08

$$$$
>  <Compound>
CCCCC1OC(=O)c2cc(N3N=C(c4cc([N+](=O)[O-])ccc4O)CC3=O)ccc21 (stereo not drawn)

>  <Ratio IC50>
> 1.1

$$$$
>  <Compound>
CCCCC1OC(=O)c2cc(N3N=C(c4cccc(Br)c4O)CC3=O)ccc21 (stereo not drawn)

>  <Ratio IC50>
> 1

$$$$
>  <Compound>
CCCCC1OC(=O)c2cc(N3N=C(c4cc(N(C)C)ccc4O)CC3=O)ccc21 (stereo not drawn)

>  <Ratio IC50>
> 1.6

$$$$
>  <Compound>
CCCCC1OC(=O)c2cc(N3N=C(c4ccc(N(C)C)cc4O)CC3=O)ccc21 (stereo not drawn)

>  <Ratio IC50>
> 2

$$$$
>  <Compound>
CCCCCCC1OC(=O)c2cc(N3N=C(c4cc(Cl)ccc4O)CC3=O)ccc21 (stereo not drawn)

>  <Ratio IC50>
> 1.2

$$$$
>  <Compound>
O=C1OCc2ccc(N3N=C(c4ccccc4O)CC3=O)cc21

>  <Ratio IC50>
> 45.5

$$$$
>  <Compound>
CCCCCCCC1OC(=O)c2cc(N3N=C(c4cc(OC)ccc4O)CC3=O)ccc21 (stereo not drawn)

>  <Ratio IC50>
> 3.5

$$$$
>  <Compound>
CCCCC1OC(=O)c2cc(N3N=C(c4cc(Cl)cc(Br)c4O)CC3=O)ccc21 (stereo not drawn)

>  <Ratio IC50>
> 1.5

$$$$
>  <Compound>
CCCCCCCC1OC(=O)c2cc(N3N=C(c4ccccc4O)CC3=O)ccc21 (stereo not drawn)

>  <Ratio IC50>
> 0.9

$$$$
>  <Compound>
O=C1OCc2ccc(N3N=C(c4cc(F)ccc4O)CC3=O)cc21

>  <Ratio IC50>
> 17.9

$$$$
>  <Compound>
CCCCCCC1OC(=O)c2cc(N3N=C(c4ccccc4O)CC3=O)ccc21 (stereo not drawn)

>  <Ratio IC50>
> 2.6

$$$$
>  <Compound>
CCCCC1OC(=O)c2cc(N3N=C(c4ccc(Cl)cc4O)CC3=O)ccc21 (stereo not drawn)

>  <Ratio IC50>
> 1.2

$$$$
>  <Compound>
CCCCC1OC(=O)c2cc(N3N=C(c4cc(OC)ccc4O)CC3=O)ccc21 (stereo not drawn)

>  <Ratio IC50>
> 2.6

$$$$
>  <Compound>
CCCCC1OC(=O)c2cc(N3N=C(c4cc(Cl)ccc4O)CC3=O)ccc21 (stereo not drawn)

>  <Ratio IC50>
> 1.3

$$$$
